B1: KAT8 regulatory NSL complex subunit 2, residues 28 to 91; numbered along this chain, Q9H9L4 (parent)
chain: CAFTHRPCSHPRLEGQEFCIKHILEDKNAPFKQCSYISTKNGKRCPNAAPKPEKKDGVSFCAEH

Variants of: B1
Assay: abundance fitness (aPCA) (normalised: wild type 0, dead -1); higher = more abundant; growth selection in yeast, the domain comes from the species named
Details: Homo sapiens
variants and their reported abundance fitness
Simply state the number, no unit and no words.

Take a look at these entries with their results.
1. R6A	-0.167
2. E17V	-0.102
3. S9I	0.016
4. S59W	0.01
5. C8R	-1.02

**Q:** # get_value(readout='abundance fitness', item= K27E )
**A:** -0.079

**Q:** And then C19G , what is it?
**A:** -0.941

**Q:** And then P46L , what is it?
**A:** -0.079

**Q:** And then P50E , what is it?
**A:** 0.095

**Q:** And then T39K , what is it?
**A:** -0.087

**Q:** And then E14D , what is it?
**A:** -0.152

**Q:** And then S35R , what is it?
**A:** -0.105
